Please provide measured Emax for the entries that follow.
Target: Metabotropic glutamate receptor 5 (Homo sapiens, UniProt P41594)
Sequence (P41594 21-1212 limits assumed): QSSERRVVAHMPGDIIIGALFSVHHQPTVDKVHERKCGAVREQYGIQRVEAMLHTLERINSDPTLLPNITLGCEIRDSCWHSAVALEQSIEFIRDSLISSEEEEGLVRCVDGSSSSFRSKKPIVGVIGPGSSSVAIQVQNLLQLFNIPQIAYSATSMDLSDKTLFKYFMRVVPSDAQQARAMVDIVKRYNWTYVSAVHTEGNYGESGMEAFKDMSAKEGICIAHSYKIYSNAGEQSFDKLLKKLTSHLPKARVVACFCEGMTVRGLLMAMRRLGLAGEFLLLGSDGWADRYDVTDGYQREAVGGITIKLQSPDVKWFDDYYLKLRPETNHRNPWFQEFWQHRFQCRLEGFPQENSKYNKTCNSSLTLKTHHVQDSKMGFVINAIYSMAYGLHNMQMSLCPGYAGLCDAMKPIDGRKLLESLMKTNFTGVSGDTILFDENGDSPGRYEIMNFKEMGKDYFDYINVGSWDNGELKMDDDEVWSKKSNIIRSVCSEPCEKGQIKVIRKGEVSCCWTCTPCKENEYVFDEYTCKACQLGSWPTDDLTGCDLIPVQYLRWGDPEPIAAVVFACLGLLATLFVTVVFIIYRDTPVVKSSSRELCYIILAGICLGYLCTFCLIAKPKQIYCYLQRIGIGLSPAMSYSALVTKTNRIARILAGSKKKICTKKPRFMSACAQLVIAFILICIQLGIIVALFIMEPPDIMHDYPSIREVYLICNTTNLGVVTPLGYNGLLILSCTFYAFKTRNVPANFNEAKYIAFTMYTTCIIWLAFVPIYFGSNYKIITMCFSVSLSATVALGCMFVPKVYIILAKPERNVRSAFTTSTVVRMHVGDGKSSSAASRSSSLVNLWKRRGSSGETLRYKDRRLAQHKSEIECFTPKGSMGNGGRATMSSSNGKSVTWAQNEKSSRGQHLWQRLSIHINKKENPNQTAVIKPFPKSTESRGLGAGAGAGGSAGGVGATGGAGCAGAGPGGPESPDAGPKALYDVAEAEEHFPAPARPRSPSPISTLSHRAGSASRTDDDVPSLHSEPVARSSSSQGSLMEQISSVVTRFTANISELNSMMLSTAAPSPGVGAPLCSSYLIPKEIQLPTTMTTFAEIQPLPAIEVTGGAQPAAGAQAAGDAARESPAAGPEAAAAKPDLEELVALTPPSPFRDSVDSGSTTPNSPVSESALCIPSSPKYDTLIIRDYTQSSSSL
Experiment: Positive allosteric modulation of human mGluR5 expressed in recombinant HEK293 cells by FLIPR assay
Format: cell-based
// return the numeric value with its unit appended

Task item: Bench note: what Emax did `Cc1cccc(-c2noc(C3CN(C(=O)C4CCOCC4)C3)n2)c1` show?
Reply: -2%

Task item: Which Emax value belongs to Cc1cccc(-c2noc(C3CN(C(=O)C4CCC(C(F)(F)F)CC4)C3)n2)c1 (stereo not given) ?
Reply: 36%

Task item: Tell me the measured Emax of `Cc1cccc(-c2noc(C3CN(C(=O)c4ccc(Cl)cc4)C3)n2)c1` , please.
Reply: 33%

Task item: // query Emax value for entry `O=C(C1CCC2(CCC2)CC1)N1CC(c2nc(-c3cccc(Cl)c3)no2)C1`
Reply: 40%

Task item: Look at this compound and give its reported Emax. `O=C(c1ccc(F)cc1)N1CC(c2nc(-c3cccc(F)c3)no2)C1`
Reply: 40%
